B1: WSB1 (parent)
chain: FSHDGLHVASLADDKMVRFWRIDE

- Variants of: B1
- Protocol: protein stability index of a GFP-peptide fusion (GPS, HEK-293T) (PSI 1-6); higher = more stable;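 further: lentivirally expressed fusions sorted by FACS into six bins by GFP to DsRed ratio, PSI derived from sequencing read proportions per bin multiplied by bin number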
- Run Parameters: c terminus: a fixed tail appended
Tag: Y if measured protein stability index is not below 2, N if it is.

Mutant Designation	Class Label
F19E	Y
G5N	Y
D14W	Y
V17I	Y
S10A	N
M16S	Y
R21D	Y
L6C	N
H7A	N
H7Q	N
A12H	Y
A9P	N
S10T	N
A9L	Y
S2E	Y
D23Y	N
F19C	Y
D4Y	N
V8R	N
D23F	Y
F19V	Y
I22S	N
D4H	N
D13E	N
I22K	Y
A9F	Y
K15L	Y
V17S	N
S10Q	N
K15T	N
V8K	N
M16A	N
D14F	Y
F1A	Y
G5I	N
R21C	Y
D14E	N
F1I	Y
G5E	Y
V17T	N
H7E	N
M16I	N
